target: human TLR8 (Homo sapiens (Human), UniProt Q9NR97); assay: HEK-Blue human TLR8 cells, NF-κB SEAP reporter assay; conditions: 20 hours stimulation
Sequence (Q9NR97 27-1041): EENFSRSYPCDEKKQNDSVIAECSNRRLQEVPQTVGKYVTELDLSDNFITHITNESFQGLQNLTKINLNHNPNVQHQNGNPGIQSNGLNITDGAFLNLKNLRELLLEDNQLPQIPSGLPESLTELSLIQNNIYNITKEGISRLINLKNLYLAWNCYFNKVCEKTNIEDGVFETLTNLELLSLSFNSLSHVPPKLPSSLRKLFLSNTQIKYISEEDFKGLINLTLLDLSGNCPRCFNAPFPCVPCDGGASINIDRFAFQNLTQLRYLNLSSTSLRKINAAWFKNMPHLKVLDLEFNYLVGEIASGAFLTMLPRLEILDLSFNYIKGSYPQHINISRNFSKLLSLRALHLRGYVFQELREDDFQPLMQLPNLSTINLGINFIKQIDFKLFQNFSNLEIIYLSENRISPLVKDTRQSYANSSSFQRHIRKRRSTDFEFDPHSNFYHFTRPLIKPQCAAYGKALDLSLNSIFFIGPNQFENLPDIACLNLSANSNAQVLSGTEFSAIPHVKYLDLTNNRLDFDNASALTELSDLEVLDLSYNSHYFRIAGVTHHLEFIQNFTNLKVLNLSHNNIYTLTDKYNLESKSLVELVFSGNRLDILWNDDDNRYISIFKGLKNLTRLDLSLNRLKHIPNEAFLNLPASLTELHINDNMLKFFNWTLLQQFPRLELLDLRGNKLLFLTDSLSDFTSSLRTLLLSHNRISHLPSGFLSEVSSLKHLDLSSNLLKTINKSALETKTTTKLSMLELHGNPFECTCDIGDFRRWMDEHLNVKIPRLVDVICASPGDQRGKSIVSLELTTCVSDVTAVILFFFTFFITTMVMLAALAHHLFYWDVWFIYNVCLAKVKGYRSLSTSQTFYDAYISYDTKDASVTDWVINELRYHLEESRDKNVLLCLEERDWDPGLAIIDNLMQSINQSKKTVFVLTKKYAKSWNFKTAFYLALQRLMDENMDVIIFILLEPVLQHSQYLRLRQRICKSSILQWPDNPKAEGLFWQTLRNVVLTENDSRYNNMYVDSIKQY
observed.property: pEC50
Reminder that pEC50 is minus the log10 of a molar concentration.

Would you please look over these solved cases?
INSERT INTO measurements (smiles_text, system_name, observed_property, result_number) VALUES
  ('CCCN(CC1CC1)C(=O)C1=Cc2ccc(C3=NCc4ccccc4N3)cc2N=C(N)C1', 'human TLR8 (Homo sapiens (Human), UniProt Q9NR97)', 'pEC50', 8.22),
  ('CCCN(CCC)C(=O)C1=Cc2ccc(C3=NCc4c(Cl)cccc4N3)cc2N=C(N)C1', 'human TLR8 (Homo sapiens (Human), UniProt Q9NR97)', 'pEC50', 7.96),
  ('CCCN(CC(C)C)C(=O)C1=Cc2ccc(C3=NCc4ccccc4N3)cc2N=C(N)C1', 'human TLR8 (Homo sapiens (Human), UniProt Q9NR97)', 'pEC50', 7.96),
  ('CCCN(CCC)C(=O)C1=Cc2ccc(C3=NCc4c(C)cccc4N3)cc2N=C(N)C1', 'human TLR8 (Homo sapiens (Human), UniProt Q9NR97)', 'pEC50', 9.00),
  ('CCCN(CCC)C(=O)C1=Cc2ccc(C3=NCc4ccccc4N3)cc2N=C(N)C1', 'human TLR8 (Homo sapiens (Human), UniProt Q9NR97)', 'pEC50', 8.52);

# pEC50 lookup, item `CCCN(CCC)C(=O)C1=Cc2ccc(C3=NCc4c(F)cccc4N3)cc2N=C(N)C1`
8.52
